We begin with a simple list: items and their reported IC50.
- Target or system: Human immunodeficiency virus type 1 integrase (Human immunodeficiency virus 1, UniProt Q7ZJM1)
- Sequence (Q7ZJM1 whole entry): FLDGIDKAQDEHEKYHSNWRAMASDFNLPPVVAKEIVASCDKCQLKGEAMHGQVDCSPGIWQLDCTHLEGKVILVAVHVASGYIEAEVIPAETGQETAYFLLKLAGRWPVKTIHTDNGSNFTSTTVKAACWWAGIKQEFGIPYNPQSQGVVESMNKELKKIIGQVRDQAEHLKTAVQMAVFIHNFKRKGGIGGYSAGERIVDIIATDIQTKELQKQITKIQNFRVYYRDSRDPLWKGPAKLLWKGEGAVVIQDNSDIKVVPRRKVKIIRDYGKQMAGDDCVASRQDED
- Assay info: Inhibition of HIV1 integrase by overall integration assay
Quick note: give the figure in µM, leave out the unit.

Some compounds with recorded IC50:
> print(dat)
                                        mol  value.measured
1  CCn1cc(C(=O)O)c(=O)c2c1C(=O)C=C(Sc1ccccc1)C2=O             4.6
2  O=C(c1ccc2c(c1)c(=O)c(C(=O)O)cn2CCO)c1ccc(Cl)cc1Cl            18.7
3    O=C(O)c1cn(CCO)c2ccc(Sc3ccccc3)cc2c1=O             4.8
4  CN(C)CCn1cc(C(=O)O)c(=O)c2cc(Cc3ccc(Cl)cc3Cl)ccc21            10.8
5  O=C(O)c1cn(CCO)c2ccc(/C=C/c3ccccc3)cc2c1=O            71.9

Problem: Consider the compound "CCn1cc(C(=O)O)c(=O)c2c1C(=O)C=C(Nc1cccc(Cl)c1F)C2=O" and give its measured IC50.
Result: 9.7

Problem: What measured IC50 goes with "COCCn1cc(C(=O)O)c(=O)c2cc(Cc3ccc(Cl)cc3Cl)ccc21" ?
Result: 5.6

Problem: May I ask what IC50 has been recorded for "O=C(c1ccc2c(c1)c(=O)c(C(=O)O)cn2CCCCO)c1ccc(Cl)cc1Cl" ?
Result: 54.9

Problem: Would you kindly share the measured IC50 for "CCn1cc(C(=O)O)c(=O)c2c1C(=O)C=C(Nc1ccc(F)c(Cl)c1)C2=O" ?
Result: 1

====

- Assay info: Cytotoxicity against human MT4 cells by MTT assay
- Type: cell-based
Listed next: entries and their corresponding CC50.
Kindly provide the numeric value in µM only, without the unit symbol.

> print(dat)
                                        mol  value.measured
1  COCCn1cc(C(=O)O)c(=O)c2cc(Cc3ccc(Cl)cc3Cl)ccc21             4.2
2  O=C(c1ccc2c(c1)c(=O)c(C(=O)O)cn2CCCO)c1ccc(Cl)cc1Cl            17.5
3  COc1cc2c(cc1Cc1cccc(Cl)c1F)c(=O)c(C(=O)O)cn2[C@H](CO)C(C)C            1.15
4  O=C(O)c1cn(CCO)c2ccc(Oc3ccc(F)c(Cl)c3)cc2c1=O             9.9

Problem: Could you share which CC50 value was measured for "O=C(Nc1ccc2c(c1)c(=O)c(C(=O)O)cn2CCO)c1ccccc1" ?
Result: 220

Problem: Could you share which CC50 value was measured for "O=C(O)c1cn(CCO)c2ccc(-c3ccccc3)cc2c1=O" ?
Result: 44.9

Problem: Which CC50 value belongs to "O=C(O)c1cn(CCO)c2ccc(Cc3ccc(Cl)cc3Cl)cc2c1=O" ?
Result: 5.3

Problem: Which CC50 value is on record for "CCn1cc(C(=O)O)c(=O)c2c1C(=O)C=CC2=O" ?
Result: 42.8

Problem: CC50 for "O=C(O)c1cn(CCO)c2ccc(Nc3cccc(Cl)c3F)cc2c1=O" ?
Result: 27.4

Problem: Consider the compound "CCn1cc(C(=O)O)c(=O)c2c1C(=O)C=C(Nc1ccc(F)c(Cl)c1)C2=O" and give its measured CC50.
Result: 2.2

====

- Assay info: Cytotoxicity against human MT4 cells by MTT assay
- Format: cell-based
Readout label: log10(CC50) (log10 of the value in µM)
// stored as log10 of CC50 expressed in µM

Example compounds with recorded log10(CC50):
> print(dat)
                                        mol  value.measured
1  O=C(O)c1cn(CCCCO)c2ccc(Cc3ccc(Cl)cc3Cl)cc2c1=O            0.62
2  O=C(c1ccc2c(c1)c(=O)c(C(=O)O)cn2CCO)c1ccc(Cl)cc1Cl            1.32
3  CCn1cc(C(=O)O)c(=O)c2c1C(=O)C=C(Nc1cccc(Cl)c1F)C2=O            0.38

Problem: log10(CC50) lookup needed for "O=C(c1ccc2c(c1)c(=O)c(C(=O)O)cn2CCCCO)c1ccc(Cl)cc1Cl" , thanks.
Result: 1.23

Problem: // lookup log10(CC50) for "O=C(O)c1cn(CCO)c2ccc(-c3ccncc3)cc2c1=O"
Result: 2.14

====

- Target or system: UniProt Q7ZJM1
- Assay info: Inhibition of HIV1 integrase by overall integration assay
Examples of compounds with documented IC50 follow.

Problem: Dear colleague, I am looking for the recorded IC50 of the following compound: "O=C(O)c1cn(CCO)c2ccc(-c3ccccc3)cc2c1=O"
Result: > 100 µM

Problem: What value of IC50 has been recorded for this entry: "O=C(Nc1ccc2c(c1)c(=O)c(C(=O)O)cn2CCO)c1ccccc1"
Result: > 100 µM

Problem: State the recorded IC50 for this entry: "O=C(O)c1cn(CCO)c2ccc(Nc3cccc(Cl)c3F)cc2c1=O"
Result: > 100 µM

====

- Target or system: UniProt:Q7ZJM1
- Assay info: Inhibition of HIV1 integrase DNA strand transfer activity
pIC50: −log10 of the molar value.
Readout label: pIC50

Problem: Any idea what pIC50 came out for "CCn1cc(C(=O)O)c(=O)c2cc(Nc3cccc(Cl)c3F)ccc21" on UniProt:Q7ZJM1?
Result: < 4.00

Problem: Find pIC50 (UniProt:Q7ZJM1) for the entry "CCn1cc(C(=O)O)c(=O)c2c1C(=O)C=C(Nc1cccc(Cl)c1F)C2=O"
Result: < 4.00

Problem: Record "O=C(O)c1cn(CCO)c2ccc(-c3ccncc3)cc2c1=O" : what is its pIC50 with UniProt:Q7ZJM1?
Result: < 4.00

Where do these numbers come from? They come from ChEMBL document CHEMBL1156566.
